EC50 values for the compounds below.
- System: 1b_Huh-Luc/Neo-ET cell line (bicistronic genotype 1b replicon in Huh 7 cells)
- Experiment: HCV 1b replicon assay, luciferase readout
- Format: cell-based, HCV genotype 1b
- Condition Summary: Hepatitis C virus, Huh-7, class symbol; HCV genotype 1b replicon; read-out: Inhibition of HCV genotype 1b replicon

Task item: Answer with reported EC50 of CNC(=O)c1c(-c2ccc(F)cc2)oc2cc3c(cc12)C(C)N(S(C)(=O)=O)CCN3S(C)(=O)=O (centres unmarked)
Reply: 0.01 to 0.1 µM

Task item: Supply measured EC50 of CNC(=O)c1c(-c2ccc(Br)cc2)nn2cc3c(cc12)C(C)CCCN3S(C)(=O)=O (centres unmarked) in your reply.
Reply: 0.01 to 0.1 µM

Task item: Return EC50 for the following compound: CNC(=O)c1c(-c2ccc(Oc3ccccc3F)cc2)nn2cc3c(cc12)C(C)CCCN3S(C)(=O)=O (centres unmarked)
Reply: 0.1 to 1 µM

Further cases:
Task item: For the compound CNC(=O)c1c(-c2ccc(F)cc2)oc2cc3c(cc12)C(C)OC1(CC1)CN3S(C)(=O)=O (centres unmarked) , give its measured EC50 value.
Reply: 0.01 to 0.1 µM

Task item: Report EC50, nothing else, for this compound: CNC(=O)c1c(-c2ccc(F)cc2)oc2cc3c(cc12)C(C)NC(=O)CN3S(C)(=O)=O (centres unmarked)
Reply: 0.01 to 0.1 µM

====

Listing: EC50 of selected molecules
- Tested on: 1b_Huh-Luc/Neo-ET cell line (bicistronic genotype 1b replicon in Huh 7 cells)
- Experiment: HCV 1b replicon assay, luciferase readout
- Assay type: cell-based, HCV genotype 1b
- Condition Summary: Hepatitis C virus, Huh-7, class symbol; HCV genotype 1b replicon; read-out: Inhibition of HCV genotype 1b replicon

The following molecules have reported results that may help.
Task item: Give recorded EC50. CNC(=O)c1c(-c2ccc(F)cc2)nc2cc3c(cn12)C(C)=CCCO3 [Compound B30]
Reply: > 1000 nM

Task item: Write down EC50 measured for item CNC(=O)c1c(-c2ccc(Oc3ccc(F)cc3)cc2)oc2cc3c(cc12)[C@H](C)O[C@H](CS(C)(=O)=O)CN3S(C)(=O)=O [Compound B207]
Reply: < 10 nM

New cases:
Task item: Find the measured EC50 of CNC(=O)c1c(-c2ccc(Oc3ccc(F)cc3)cc2)oc2cc3c(cc12)C(C)OC(CCS(C)(=O)=O)CN3S(C)(=O)=O (stereo not drawn) [Compound B236] and report it.
Reply: < 10 nM

Task item: Using known records, supply EC50 for CC1CCCN(S(C)(=O)=O)c2cc3oc(-c4ccc(Oc5ccc(F)cc5)cc4)c(-c4ncc[nH]4)c3cc21 (stereo not drawn) [Compound B198]
Reply: < 10 nM

Task item: Fill in EC50 for record CNC(=O)c1c(-c2ccc(Oc3ccc(F)cc3)cc2)oc2cc3c(cc12)C(C)OC(C)(C)CN3S(C)(=O)=O (stereo not drawn) [Compound B167]
Reply: 10 to 100 nM

Task item: Annotate the molecule CNC(=O)c1c(-c2ccc(F)cc2)oc2cc3c(cc12)[C@H](C)N(C)C(=O)CN3S(C)(=O)=O (single isomer, unassigned) [Compound B179] with its measured EC50.
Reply: 10 to 100 nM
